All values here come from ChEMBL document CHEMBL4699562.

Test system: MCF7
procedure.text: Antiproliferative activity against human MCF7 cells assessed as cell growth inhibition
Assay type: functional, cell-based
reported.metric: pIC50
Lab note — pIC50 values are minus log10 of concentrations in M.

Solved entries (count: 7):
CC/C(=C(/c1ccc(/C=C/C(=O)O)cc1)c1cc2ccccc2[nH]1)c1ccc(Cl)c(C)c1    6.08
CC/C(=C(/c1ccc(/C=C/C(=O)O)cc1)c1cc2ccccc2[nH]1)c1ccccc1C#N    8.05
CC/C(=C(/c1ccc(/C=C/C(=O)O)cc1)c1cc2ccccc2[nH]1)c1ccccc1C(F)(F)F    8.10
CC/C(=C(/c1ccc(/C=C/C(=O)O)cc1)c1cc2ccccc2[nH]1)c1ccc(Cl)cc1C(F)(F)F    8.40
CC/C(=C(/c1ccc(/C=C/C(=O)O)cc1)c1cc2ccccc2[nH]1)c1cccc(C(F)(F)F)c1    6.49
CC/C(=C(/c1ccc(/C=C/C(=O)O)cc1)c1cc2ccccc2[nH]1)c1cccc(C)c1    6.85
CC/C(=C(/c1ccc(/C=C/C(=O)O)cc1)c1cc2ccccc2[nH]1)c1ccc(C(F)(F)F)cc1    6.86

# input for lookup
Lookup: Supply recorded pIC50 for CC/C(=C(/c1ccc(/C=C/C(=O)O)cc1)c1cc2ccccc2[nH]1)c1ccc(OC)cc1 here.
Found: 7.21

---

procedure.text: AUC (0 to last) in CD-1 mouse at 2.5 mg/kg, po
Assay type: ADME, organism-based
Design: time 0 - last, route oral, dose 2.5 mg/kg
reported.conditions: in vivo
Listed compounds paired with reported AUC(0-t)
Numeric answer only, unit µM·h assumed.

CC/C(=C(/c1ccc(/C=C/C(=O)O)cc1)c1cc2ccccc2[nH]1)c1ccccc1C(F)(F)F    4.21

Okay, next one:
Lookup: Give AUC(0-t) for the following compound: CC/C(=C(/c1ccc(/C=C/C(=O)O)cc1)c1cc2ccccc2[nH]1)c1ccc(Cl)cc1C(F)(F)F
Found: 6.36

---

The compounds listed here are annotated with their bioavailability.
procedure.text: Oral bioavailability in CD-1 mouse
Assay type: ADME, organism-based
reported.conditions: in vivo
Answer in %, number only, no unit symbol.

CC/C(=C(/c1ccc(/C=C/C(=O)O)cc1)c1cc2ccccc2[nH]1)c1ccccc1C(F)(F)F    25.7

Next:
Lookup: Check the records and state bioavailability for CC/C(=C(/c1ccc(/C=C/C(=O)O)cc1)c1cc2ccccc2[nH]1)c1ccc(Cl)cc1C(F)(F)F
Found: 52.4

---

This section presents compounds with their documented clearance values.
procedure.text: Clearance in CD-1 mouse
Assay type: ADME
reported.conditions: in vivo
Only the number, expressed in L/h/kg, is required.

CC/C(=C(/c1ccc(/C=C/C(=O)O)cc1)c1cc2ccccc2[nH]1)c1ccccc1C(F)(F)F    0.332

Would you kindly look at the next entry?
Lookup: Complete the entry with clearance for CC/C(=C(/c1ccc(/C=C/C(=O)O)cc1)c1cc2ccccc2[nH]1)c1ccc(Cl)cc1C(F)(F)F
Found: 0.412

---

measured.target: Estrogen receptor (Homo sapiens, UniProt P03372)
Sequence (P03372 whole entry): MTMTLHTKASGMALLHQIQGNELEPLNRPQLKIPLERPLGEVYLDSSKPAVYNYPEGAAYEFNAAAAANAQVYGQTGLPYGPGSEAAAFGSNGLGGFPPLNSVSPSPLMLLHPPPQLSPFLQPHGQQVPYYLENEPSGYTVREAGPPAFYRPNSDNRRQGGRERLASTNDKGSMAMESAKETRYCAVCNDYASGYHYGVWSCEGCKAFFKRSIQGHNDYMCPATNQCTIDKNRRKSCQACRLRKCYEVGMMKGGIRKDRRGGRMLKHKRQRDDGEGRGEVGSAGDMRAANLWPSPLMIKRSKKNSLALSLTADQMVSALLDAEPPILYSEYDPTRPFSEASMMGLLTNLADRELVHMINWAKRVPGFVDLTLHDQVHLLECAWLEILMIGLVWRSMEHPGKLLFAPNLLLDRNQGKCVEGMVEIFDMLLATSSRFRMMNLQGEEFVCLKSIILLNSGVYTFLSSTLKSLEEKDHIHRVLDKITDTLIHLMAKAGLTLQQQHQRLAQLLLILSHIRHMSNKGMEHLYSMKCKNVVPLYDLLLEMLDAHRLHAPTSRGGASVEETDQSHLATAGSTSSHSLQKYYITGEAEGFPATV
procedure.text: Induction of estrogen receptor degradation in human MCF7 cells
Format: cell-based
Collected IC50 values appear next to each entry.
Numeric answer only, unit nM assumed.

Known IC50 results, listed for orientation:
CC/C(=C(/c1ccc(/C=C/C(=O)O)cc1)c1cc2ccccc2[nH]1)c1c(C)cccc1Cl    42
CC/C(=C(/c1ccc(/C=C/C(=O)O)cc1)c1cc2ccccc2[nH]1)c1ccc(Cl)cc1C(F)(F)F    2
CC/C(=C(/c1ccc(/C=C/C(=O)O)cc1)c1cc2ccccc2[nH]1)c1ccc(OC)cc1    30

Lookup: Respond only with IC50 recorded for CC/C(=C(/c1ccc(/C=C/C(=O)O)cc1)c1cc2ccccc2[nH]1)c1ccccc1Cl
Found: 29

Lookup: Return reported IC50. Input compound: CC/C(=C(/c1ccc(/C=C/C(=O)O)cc1)c1cc2ccccc2[nH]1)c1cccc(C)c1
Found: 69

Lookup: Identify measured IC50 corresponding to CC/C(=C(/c1ccc(/C=C/C(=O)O)cc1)c1cc2ccccc2[nH]1)c1ccccc1C(F)(F)F
Found: 4

Lookup: Give IC50 for CC/C(=C(/c1ccc(/C=C/C(=O)O)cc1)c1cc2ccccc2[nH]1)c1cccc(F)c1C#N
Found: 49

---

Tested on: MCF7
procedure.text: Antiproliferative activity against human MCF7 cells assessed as cell growth inhibition
Type: functional, cell-based
reported.metric: IC50 (nM)
Express it in nM; write the number only.

Some compounds with recorded IC50:
CC/C(=C(/c1ccc(/C=C/C(=O)O)cc1)c1cc2ccccc2[nH]1)c1ccccc1C    33
CC/C(=C(/c1ccc(/C=C/C(=O)O)cc1)c1cc2ccccc2[nH]1)c1ccc(C#N)cc1    278

Lookup: Report IC50 for CC/C(=C(/c1ccc(/C=C/C(=O)O)cc1)c1cc2ccccc2[nH]1)c1ccc(Cl)c(C(F)(F)F)c1
Found: 2200

---

procedure.text: Volume of distribution in CD-1 mouse
Type: ADME
reported.conditions: in vivo
Below, each of the compounds is paired with its reported Vd value.
Answer with a number only, understood to be in L/kg.

CC/C(=C(/c1ccc(/C=C/C(=O)O)cc1)c1cc2ccccc2[nH]1)c1ccc(Cl)cc1C(F)(F)F    1.6

Lookup: Provide measured Vd value, entry: CC/C(=C(/c1ccc(/C=C/C(=O)O)cc1)c1cc2ccccc2[nH]1)c1ccccc1C(F)(F)F
Found: 1.12

---

Tested on: MCF7
procedure.text: Antiproliferative activity against human MCF7 cells assessed as cell growth inhibition
Type: functional, cell-based
reported.metric: IC50 (nM)
Entry rule: numbers only, all in nM.

CC/C(=C(/c1ccc(/C=C/C(=O)O)cc1)c1cc2ccccc2[nH]1)c1ccc(C(F)(F)F)cc1Cl    27
CC/C(=C(/c1ccc(/C=C/C(=O)O)cc1)c1cc2ccccc2[nH]1)c1ccc(Cl)cc1    343
CC/C(=C(/c1ccc(/C=C/C(=O)O)cc1)c1cc2ccccc2[nH]1)c1ccc(C#N)cc1Cl    49

Lookup: Report IC50, nothing else, for this compound: CC/C(=C(/c1ccc(/C=C/C(=O)O)cc1)c1cc2ccccc2[nH]1)c1ccc(F)cc1Cl
Found: 39

Lookup: Identify IC50 associated with the compound CC/C(=C(/c1ccc(/C=C/C(=O)O)cc1)c1cc2ccccc2[nH]1)c1c(C)cccc1Cl
Found: 30

---

measured.target: Estrogen receptor (Homo sapiens, UniProt P03372)
procedure.text: Binding affinity to estrogen receptor (unknown origin)
Each entry below carries its recorded log10 IC50.
Please interpret these as log10 of IC50 where IC50 is in nM.

Please review the following examples before continuing.
CC/C(=C(/c1ccc(/C=C/C(=O)O)cc1)c1cc2ccccc2[nH]1)c1ccccc1    -0.55
CC/C(=C(/c1ccc(/C=C/C(=O)O)cc1)c1cc2ccccc2[nH]1)c1cccc(OC(F)(F)F)c1    0.67
CC/C(=C(/c1ccc(/C=C/C(=O)O)cc1)c1cc2ccccc2[nH]1)c1ccccc1C(F)(F)F    -0.06
CC/C(=C(/c1ccc(/C=C/C(=O)O)cc1)c1cc2ccccc2[nH]1)c1cccc(C(F)(F)F)c1    0.24
CC/C(=C(/c1ccc(/C=C/C(=O)O)cc1)c1cc2ccccc2[nH]1)c1ccc(C(F)(F)F)cc1Cl    -0.01

Lookup: Find log10 IC50 for CC/C(=C(/c1ccc(/C=C/C(=O)O)cc1)c1cc2ccccc2[nH]1)c1ccc(F)cc1Cl on Estrogen receptor (Homo sapiens, UniProt P03372) and write it down.
Found: 0.20

Lookup: Under Estrogen receptor (Homo sapiens, UniProt P03372): report log10 IC50 of CC/C(=C(/c1ccc(/C=C/C(=O)O)cc1)c1cc2ccccc2[nH]1)c1ccc(C#N)cc1Cl .
Found: -0.77

Lookup: Recall the reported log10 IC50 of CC/C(=C(/c1ccc(/C=C/C(=O)O)cc1)c1cc2ccccc2[nH]1)c1ccc(Cl)cc1Cl on Estrogen receptor (Homo sapiens, UniProt P03372) and write it down.
Found: 0.18

Lookup: Look up and report log10 IC50, with Estrogen receptor (Homo sapiens, UniProt P03372) as system, for CC/C(=C(/c1ccc(/C=C/C(=O)O)cc1)c1cc2ccccc2[nH]1)c1ccccc1Cl
Found: -0.36

---

Tested on: MCF7
procedure.text: Antiproliferative activity against human MCF7 cells assessed as cell growth inhibition
Format: functional, cell-based
reported.metric: pIC50
To interpret pIC50, take it as minus log10 of a concentration measured in moles per litre.

Worked cases, pIC50 given:
CC/C(=C(/c1ccc(/C=C/C(=O)O)cc1)c1cc2ccccc2[nH]1)c1ccc(Cl)cc1Cl    7.96
C[C@@H]1Cc2c([nH]c3ccccc23)[C@@H](c2c(F)cc(/C=C/C(=O)O)cc2F)N1CC(C)(C)F [AZD-9496]    9.31
CC/C(=C(/c1ccc(/C=C/C(=O)O)cc1)c1cc2ccccc2[nH]1)c1cccc(F)c1C#N    7.40
CC/C(=C(/c1ccc(/C=C/C(=O)O)cc1)c1cc2ccccc2[nH]1)c1ccccc1Cl    7.38

We now examine a further compound.
Lookup: Find the measured pIC50 of CC/C(=C(/c1ccc(/C=C/C(=O)O)cc1)c1cc2ccccc2[nH]1)c1cccc(Cl)c1Cl and report it.
Found: 6.05
